- testDescription: VP16 transactivation reporter inhibitors, counter-screen for LRH-1 inverse agonist project, cell-based, luminescence, high throughput (AID 651615)
- assayConditions: Gal4-VP16 luciferase reporter cells, at 3.6 µM
Active and inactive are the calls of the source. Cut-off read from the data, not from the text of the source: active = inhibition above about 33%; inactive = the rest.
Field 'call' accepts y for active, n for inactive

Answered cases to consult:
Q: Record request — test call for `Cc1cc2oc(=O)cc(C)c2cc1NC(=O)CCl`
Result: n

Q: Record request — test call for `Cc1nc2c(-c3ccc(F)cc3)cnn2c(N)c1-c1ccccc1`
Result: n

Q: Record request — test call for `COc1cc(-c2cc(NC=O)c3ncc(-c4ccc(C(C)=O)cc4)n3c2)ccc1O`
Result: n

Q: Record request — test call for `COc1cccc(-c2cnc3c(NC=O)cc(-c4ccc(S(C)(=O)=O)cc4)cn23)c1`
Result: n

Q: Record request — test call for `Cn1c(SCC(=O)Nc2ccc3nc(SCC(=O)NC4CC4)sc3c2)nnc1-c1ccccc1`
Result: n

Q: Record request — test call for CCC1C/C(=C\c2cccnc2)C(=O)/C(=C/c2cccnc2)C1 (configuration not stated)
Result: y

Further cases:
Q: Record request — test call for `COc1ccc(Nc2ccncc2[N+](=O)[O-])cc1`
Result: y

Q: Record request — test call for `CCOc1ccc(-c2noc(CCC(=O)O)n2)cc1`
Result: n

Q: Record request — test call for `Cc1nc(N)nc(N)c1/C=C/C(C)(C)c1ccc(Cl)cc1`
Result: n

Q: Record request — test call for `CC(=O)Nc1ccc(NC(=O)CSc2nnnn2C2CCCCC2)cc1`
Result: n

Q: Record request — test call for `CCCOc1ccc(Cn2cnc3ccccc32)cc1`
Result: n

Q: Record request — test call for `CCCc1nnc2n1N=C(c1ccc(OC)c(OC)c1)CS2`
Result: n

Q: Record request — test call for `COc1ccc(CCNC(=O)CSc2nnc(CNC(=O)c3cccs3)o2)cc1OC`
Result: n

Q: Record request — test call for `CC(C)(C)c1ccc(C(=O)Nc2ccc(C(=O)NCc3cccnc3)cc2)cc1`
Result: y

Q: Record request — test call for `CC(C)(C)c1ccc(-c2noc(CCC(N)=O)n2)cc1`
Result: y

Q: Record request — test call for `Cc1cc(OCC(=O)N2CCC(O)CC2)c2c(C)cc(=O)oc2c1`
Result: n

Q: Record request — test call for `O=C(c1ccccc1Br)N1CCN(c2ccc([N+](=O)[O-])c(N3CCOCC3)c2)CC1`
Result: n

###

- measuredTarget: Induced myeloid leukemia cell differentiation protein Mcl-1 (Homo sapiens)
- testDescription: inhibitors of MCL1 binding to BIM-BH3, confirmation, biochemical, fluorescence polarization, triplicate (AID 2168);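 note: 0% = DMSO wells and 100% = unlabeled Bim-BH3 control peptide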
- assayConditions: GST-MCL1 / FITC-Bim-BH3 fluorescence polarization; at 10.9 µM; hits give high values
The other results are listed elsewhere or left out. Calls of active or inactive are those of the source.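 The calls were made as follows: active = inhibition above the average of all tested compounds plus 3 SD (cut at about 40% in these data); inactive = the rest.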
parameterMeasured: inhibition

Q: # inhibition lookup, item Cc1c(CC(=O)N2CCN(C(=O)C3COc4ccccc4O3)CC2)c(=O)oc2c(O)c(O)ccc12 (stereo not drawn)
Result: 89% (active)

Q: # inhibition lookup, item `COc1ccc(Nc2nc(-c3cccnc3)nc3ccccc23)cn1`
Result: 114% (active)

Q: # inhibition lookup, item `CCN1CC=C2C(C#N)=C(N)C(C#N)(C#N)[C@H](c3ccoc3)[C@H]2C1`
Result: 114% (active)

###

Each entry below carries its recorded inhibition.
- measuredTarget: Nuclear receptor subfamily 5 group A member 2 (Homo sapiens) (UniProt O00482)
- Sequence (O00482 whole entry, looked up): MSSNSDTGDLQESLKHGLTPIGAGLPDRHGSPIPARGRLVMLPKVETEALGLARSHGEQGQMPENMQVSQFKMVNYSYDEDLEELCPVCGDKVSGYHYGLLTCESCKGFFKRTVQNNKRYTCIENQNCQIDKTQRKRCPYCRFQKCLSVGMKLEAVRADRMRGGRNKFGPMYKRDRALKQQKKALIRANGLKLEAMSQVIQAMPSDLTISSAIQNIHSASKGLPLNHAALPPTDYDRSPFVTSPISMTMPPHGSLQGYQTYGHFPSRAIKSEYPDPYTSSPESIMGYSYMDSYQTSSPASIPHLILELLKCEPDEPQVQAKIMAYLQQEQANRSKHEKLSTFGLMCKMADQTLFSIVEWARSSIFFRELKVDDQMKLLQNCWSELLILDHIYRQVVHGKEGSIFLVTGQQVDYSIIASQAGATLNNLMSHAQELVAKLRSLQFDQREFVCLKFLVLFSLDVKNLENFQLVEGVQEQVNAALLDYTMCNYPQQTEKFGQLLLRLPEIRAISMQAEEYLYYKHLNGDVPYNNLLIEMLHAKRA
- testDescription: LRH-1 (NR5A2) inverse agonists, retest, confirmation, cell-based, luminescence (AID 651613);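 note: HEK293T cells co-transfected with LRH-1 and StAR promoter luciferase reporter; 0% = vehicle wells and 100% = parental cells lacking receptor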
- assayConditions: cell-based LRH-1 luciferase reporter, inverse agonism; at 3.6 µM; hits give high values
Hi! Could you send only the number? It should be in %, unit omitted.

// solved cases for inhibition follow
Q: # inhibition lookup, item CC(=O)c1ccc(NC(=O)C(C)O/N=C(\N)c2ccccc2)cc1 (stereo not drawn)
Result: 51.7

Q: # inhibition lookup, item COc1cccc2c1C(=O)c1c(O)c3c(c(O)c1C2=O)CC(O)(C(C)=NNC(=O)c1ccc(Cl)c(Cl)c1)CC3OC1CC(N)C(O)C(C)O1 (stereo not drawn)
Result: 75.1

Q: # inhibition lookup, item `CCOC(=O)N1CCc2cc(OC)c(OC)c3c2c1cc1cc(OC)c(OC)cc13`
Result: 70.3

Further cases:
Q: # inhibition lookup, item `CCOc1ccc(NC(=O)CN2CCN(CC(=O)Nc3ccc(OC)cc3)CC2)cc1`
Result: 58.5

Q: # inhibition lookup, item `CN(C)C(=O)c1cccc(COc2ccc(N3C(N)=NC(N)=NC3(C)C)cc2Cl)c1`
Result: 42.1

###

- testDescription: Gal4-VP16 luciferase reporter inhibitors, counter-screen for COUP-TFII antagonist project, cell-based, luminescence, HEK293 (AID 687007)
- assayConditions: at 8.5 µM, hits give high values
Some of the results follow.
Each entry below carries its recorded inhibition.
Hi! Could you send only the number? It should be in %, unit omitted.

Q: # inhibition lookup, item `COc1ccc(C(=O)Nc2ccccc2C(=O)N/N=C/c2ccc(O)c(OC)c2)cc1`
Result: 7.03

Q: # inhibition lookup, item `Cc1ccccc1CS(=O)(=O)Cc1ccc(C(=O)Nc2ccc(Cl)cc2)o1`
Result: -1.58

Q: # inhibition lookup, item `COc1ccccc1CNc1nc(Nc2ccccc2Cl)c2sccc2n1`
Result: -3.83

Q: # inhibition lookup, item Cc1cc(C(=O)NC2CCCc3c2cnn3-c2cccc(C)c2C)c(C)o1 (stereo not given)
Result: -2

Q: # inhibition lookup, item `O=C1C=C(c2ccnc3cc(Cl)ccc23)C[C@@H](c2ccc3c(c2)OCO3)C1`
Result: 2.65

Q: # inhibition lookup, item `CCCCCCCCn1c2c(c(=N)c3c1CCC3)CCCC2`
Result: 32.1

Further cases:
Q: # inhibition lookup, item `COc1cc(CC(=O)Nc2nc(-c3ccc(F)c(F)c3)cs2)cc(OC)c1OC`
Result: -0.07

Q: # inhibition lookup, item `NS(=O)(=O)c1ccc(CCNC(=O)c2ccc(Cl)c(S(=O)(=O)N3CCCCCC3)c2)cc1`
Result: 5.82

Q: # inhibition lookup, item CC(=O)N1CCCc2cc(S(=O)(=O)N3CCCC(C(=O)N4CCN(c5cccc(Cl)c5)CC4)C3)ccc21 (stereo not given)
Result: 4.48

Q: # inhibition lookup, item `OC[C@@H]1CN(Cc2ccncc2)C[C@H](n2cnc3c(N4CCN(c5ccccc5)CC4)ncnc32)O1`
Result: 8.35

###

- measuredTarget: Nuclear receptor coactivator 1 (Homo sapiens)
- testDescription: SRC1 coactivator transcriptional activity inhibitors, confirmation, cell-based, luminescence, quadruplicate (AID 588820);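 note: 0% = DMSO wells and 100% = gossypol 36 µM treated wells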
- assayConditions: HEK293 GAL4-SRC1 luciferase reporter, at 3.6 µM, hits give high values
parameterMeasured: inhibition (%)
Hi! Could you send only the number? It should be in %, unit omitted.

// solved cases for inhibition follow
Q: # inhibition lookup, item `CCN(CC)S(=O)(=O)c1cc(NC(=O)C2CCN(c3ncnc4sc(C)c(C)c34)CC2)ccc1Cl`
Result: 3.49

Q: # inhibition lookup, item `CC(C)CCNC(=O)c1sc2ccc(S(=O)(=O)N3CCCCC3)cc2c1N`
Result: 13.5

Q: # inhibition lookup, item `O=C(N/N=C(\c1ccccc1)c1ccccn1)c1ccccc1Cl`
Result: 25.9

Q: # inhibition lookup, item O=C1C(F)=CC(COC(c2ccccc2)(c2ccccc2)c2ccccc2)OC1n1cc(F)c(=O)[nH]c1=O (configuration not stated)
Result: -11.1

Q: # inhibition lookup, item `COc1ccc(C(=O)Cn2c(Br)nc3c2c(=O)n(C)c(=O)n3C)cc1`
Result: -2.41

Further cases:
Q: # inhibition lookup, item CC(=O)Nc1ccc(NC(=O)C(C)OC(=O)CCSc2ccccc2Cl)cc1 (configuration not stated)
Result: -6.34

Q: # inhibition lookup, item CN(C)c1ncnc2c1nnn2C1OC(CO)C(O)C1O (configuration not stated)
Result: 29.6

Q: # inhibition lookup, item `COc1cncc(-c2cnc3sc(NCCc4ccccn4)nn23)c1`
Result: 48.4

Q: # inhibition lookup, item `CCOc1cccc(C(=O)Nc2nc(-c3ccc(S(=O)(=O)N4CCOCC4)cc3)cs2)c1`
Result: -29.3

Q: # inhibition lookup, item `Cc1ccc(S(=O)(=O)Nc2c(NC3CCCCC3)c3ccccc3oc2=O)c(C)c1`
Result: 15.7

Q: # inhibition lookup, item `COc1cccc(-c2nnc3n2N=C(C(C)(C)C)CS3)c1`
Result: 72.3

Q: # inhibition lookup, item `CCOc1ccc(/C=C2\SC(=S)N(CCC(=O)O)C2=O)cc1`
Result: 39.5

Q: # inhibition lookup, item `CCCCCCCC[n+]1cccc2c3ccccc3ccc21`
Result: 59.1

Q: # inhibition lookup, item `CCCCCCCn1c2c(c(=N)c3ccccc31)CCC2`
Result: 61.5

Q: # inhibition lookup, item `Brc1ccc2c(c1)-c1ccccc1C1=NCCN12`
Result: -49.1

Q: # inhibition lookup, item CN1CC(=O)N2C(c3ccc(Cl)cc3)c3[nH]c4ccccc4c3C[C@H]2C1=O (some centres not stated)
Result: 25

Q: # inhibition lookup, item `Cc1ccc(-c2nc(-c3ccccc3)no2)c(Cl)c1`
Result: -51.6
